Header: pIC50 / UniProt O75914 / multiple publications
pIC50: −log10 of the molar value.

compound_string: O=c1ccc2cnc(Nc3ccc(N4CCNCC4)c(F)c3)nc2n1Cc1ccccc1-c1cccs1
pIC50: > 6.00
//
compound_string: CCn1c(=O)c(-c2ccc(-c3nnn[nH]3)cc2Cl)cc2cnc(Nc3ccc(N4CCN(C)CC4)cc3)nc21
pIC50: < 5.30
//
compound_string: CCn1c(=O)c(-c2ccc(-c3nccnc3C)cc2Cl)cc2cnc(NCCCOC)nc21
pIC50: 5.30 to 6.30
//
compound_string: CCn1c(=O)c(-c2ccc(-c3cncc(C)n3)cc2Cl)cc2cnc(NCCCOC)nc21
pIC50: 6.30 to 7.30
//
compound_string: CCn1c(=O)c(-c2ccc(-c3ccccc3F)cc2Cl)cc2cnc(Nc3ccc(C4CCN(C)CC4)cc3)nc21
pIC50: > 7.30
//
compound_string: CCn1c(=O)c(-c2ccc(-c3ccon3)s2)cc2cnc(Nc3ccc(N4CCN(C)CC4)cc3)nc21
pIC50: < 5.30
//
compound_string: CCn1c(=O)c(-c2ccc(-c3ccc(OC)nc3)cc2Cl)cc2cnc(Nc3ccc(N4CCN(C)CC4)cc3)nc21
pIC50: > 7.30
//
compound_string: CCn1c(=O)c(-c2ccc(-c3cccnc3C)cc2Cl)cc2cnc(Nc3ccc(C4CCN(C)CC4)c(F)c3)nc21
pIC50: 6.30 to 7.30
//
compound_string: CCn1c(=O)c(-c2ccc(-c3noc(C(F)(F)F)n3)cc2Cl)cc2cnc(Nc3ccc(N4CCN(C(C)C)CC4)cc3)nc21
pIC50: > 7.30
//
compound_string: CCn1c(=O)c(-c2ccc(-c3cccnc3)cc2Cl)cc2cnc(Nc3ccc(CN(C)C)cc3)nc21
pIC50: > 7.30
//
compound_string: CC(C)CNc1ccc(-c2ccnc(Nc3ccc(N4CCN(C)CC4)cc3)n2)cn1
pIC50: < 5.00
//
compound_string: CCN1CCC(c2ccc(Nc3ncc4cc(-c5ccc(-c6noc(C)n6)cc5Cl)c(=O)n(C)c4n3)cc2)CC1
pIC50: > 7.30
//
compound_string: CCn1c(=O)c(-c2ccc(C3CC3)cc2)cc2cnc(Nc3ccc(N4CCN(C)CC4)cc3)nc21
pIC50: 5.30 to 6.30
//
compound_string: CN1CCN(c2ccc(Nc3nccc(-c4ccc(N)nc4)n3)cc2)CC1
pIC50: < 5.00
//
compound_string: CCn1c(=O)c(-c2ccc(-c3cnccn3)cc2F)cc2cnc(Nc3ccc(C4CCN(C)CC4)cc3)nc21
pIC50: > 7.30
//
compound_string: CCn1c(=O)c(-c2ccc(-c3cncc(C)n3)cc2Cl)cc2cnc(NCCO)nc21
pIC50: 6.30 to 7.30
//
compound_string: CCn1c(=O)c(-c2ccc(-c3ccc(C)nc3F)cc2Cl)cc2cnc(Nc3ccc(C4CCN(C)CC4)c(F)c3)nc21
pIC50: 6.30 to 7.30

====

pIC50: −log10 of the molar value.
Record: compiled pIC50 on PAK3 (Homo sapiens, UniProt O75914) from multiple reports.
Sequence (O75914 whole entry): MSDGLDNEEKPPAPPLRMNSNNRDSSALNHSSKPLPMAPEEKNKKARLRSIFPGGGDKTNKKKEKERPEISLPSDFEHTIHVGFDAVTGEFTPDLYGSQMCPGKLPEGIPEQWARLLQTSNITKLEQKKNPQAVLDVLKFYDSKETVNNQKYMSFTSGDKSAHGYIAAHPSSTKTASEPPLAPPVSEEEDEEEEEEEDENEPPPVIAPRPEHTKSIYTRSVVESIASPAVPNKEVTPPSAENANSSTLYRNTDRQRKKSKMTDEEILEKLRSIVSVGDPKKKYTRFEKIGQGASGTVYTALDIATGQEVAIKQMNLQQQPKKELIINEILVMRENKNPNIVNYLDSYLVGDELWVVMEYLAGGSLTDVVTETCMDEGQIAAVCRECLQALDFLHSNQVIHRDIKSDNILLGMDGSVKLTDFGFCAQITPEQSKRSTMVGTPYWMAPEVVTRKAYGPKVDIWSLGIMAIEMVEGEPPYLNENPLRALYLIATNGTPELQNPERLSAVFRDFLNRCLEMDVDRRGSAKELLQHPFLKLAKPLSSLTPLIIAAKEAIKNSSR

compound_string: CCN1CCN(c2ccc(Nc3ncc4cc(-c5ccc(-c6cccnc6)cc5Cl)c(=O)n(CC)c4n3)cc2)CC1
tgt: PAK3 (Homo sapiens, UniProt O75914)
pIC50: > 7.30
--
compound_string: Cc1nc(-c2ccc(-c3cc4cnc(Nc5ccc(CCN(C)C)cc5)nc4n(C)c3=O)c(Cl)c2)no1
tgt: PAK3 (Homo sapiens, UniProt O75914)
pIC50: > 7.30
--
compound_string: CCn1c(=O)c(-c2ccc(-c3cncs3)cc2Cl)cc2cnc(Nc3ccc(N4CCNCC4)c(F)c3)nc21
tgt: PAK3 (Homo sapiens, UniProt O75914)
pIC50: > 7.30
--
compound_string: CCn1c(=O)c(-c2ccc(-c3ccc(C)nc3)cc2Cl)cc2cnc(Nc3ccc(N4CCN(C)CC4)cc3)nc21
tgt: PAK3 (Homo sapiens, UniProt O75914)
pIC50: 6.30 to 7.30
--
compound_string: Cc1noc(-c2ccccc2Cn2c(=O)ccc3cnc(Nc4ccc(N5CCN(C)CC5)cc4)nc32)n1
tgt: PAK3 (Homo sapiens, UniProt O75914)
pIC50: 5.00 to 6.00
--
compound_string: CCn1c(=O)c(-c2ccc(-c3cnn(C)c3)cc2)cc2cnc(Nc3ccc(N4CCN(C)CC4)cc3)nc21
tgt: PAK3 (Homo sapiens, UniProt O75914)
pIC50: 5.30 to 6.30
--
compound_string: CCn1c(=O)c(-c2ccc(-c3cnc(C)s3)cc2Cl)cc2cnc(Nc3ccc(C4CCNCC4)cc3)nc21
tgt: PAK3 (Homo sapiens, UniProt O75914)
pIC50: 6.30 to 7.30
--
compound_string: CCN1CCC(c2ccc(Nc3ncc4cc(-c5ccc(-c6noc(C)n6)cc5Cl)c(=O)n(CC)c4n3)cc2F)CC1
tgt: PAK3 (Homo sapiens, UniProt O75914)
pIC50: > 7.30
--
compound_string: CCn1c(=O)c(-c2ccc(-c3nnn[nH]3)s2)cc2cnc(Nc3ccc(N4CCN(C)CC4)cc3)nc21
tgt: PAK3 (Homo sapiens, UniProt O75914)
pIC50: < 5.30
--
compound_string: CCn1c(=O)c(-c2ccc(-c3cccnc3)cc2Cl)cc2cnc(Nc3ccc(N4CCN(C)CC4)c(F)c3)nc21
tgt: PAK3 (Homo sapiens, UniProt O75914)
pIC50: > 7.30
--
compound_string: CN1CCN(c2ccc(Nc3nccc(-c4ccc(N(C)CCN)nc4)n3)cc2)CC1
tgt: PAK3 (Homo sapiens, UniProt O75914)
pIC50: < 5.00
--
compound_string: CCn1c(=O)c(-c2ccc(-c3cccnc3F)cc2Cl)cc2cnc(Nc3ccc(C4=CCN(C)CC4)cc3)nc21
tgt: PAK3 (Homo sapiens, UniProt O75914)
pIC50: > 7.30
--
compound_string: CCn1c(=O)c(-c2ccc(-c3ccc(C)nc3)cc2Cl)cc2cnc(Nc3ccc(C4CCN(C)CC4)cc3)nc21
tgt: PAK3 (Homo sapiens, UniProt O75914)
pIC50: 6.30 to 7.30
--
compound_string: CN1CCC(c2ccc(Nc3ncc4cc(-c5cc(F)c(-c6cccnc6F)cc5Cl)c(=O)n(C)c4n3)cc2)CC1
tgt: PAK3 (Homo sapiens, UniProt O75914)
pIC50: 6.30 to 7.30
--
compound_string: CCn1c(=O)c(-c2ccc(-c3noc(C)n3)cc2Cl)cc2cnc(Nc3ccc(C4CCN(C)CC4)c(F)c3)nc21
tgt: PAK3 (Homo sapiens, UniProt O75914)
pIC50: > 7.30
--
compound_string: CCc1cc(-c2ccc(-c3cc4cnc(Nc5ccc(C6CCN(C)CC6)cc5)nc4n(CC)c3=O)c(Cl)c2)ncn1
tgt: PAK3 (Homo sapiens, UniProt O75914)
pIC50: 6.30 to 7.30
--
compound_string: Cc1nc(-c2ccc(-c3cc4cnc(Nc5ccc(C6CCN(C)CC6)cc5)nc4n(C)c3=O)c(C)c2)no1
tgt: PAK3 (Homo sapiens, UniProt O75914)
pIC50: > 7.30
--
compound_string: CCN1CCN(c2ccc(Nc3ncc4cc(-c5ccc(-c6scnc6C)cc5Cl)c(=O)n(CC)c4n3)cc2)CC1
tgt: PAK3 (Homo sapiens, UniProt O75914)
pIC50: 6.30 to 7.30
--
compound_string: CCN1CCC(c2ccc(Nc3ncc4cc(-c5ccc(-c6cccnc6)cc5Cl)c(=O)n(CC)c4n3)cc2F)CC1
tgt: PAK3 (Homo sapiens, UniProt O75914)
pIC50: > 7.30
--
compound_string: CCn1c(=O)c(-c2ccc(-c3cccc4ncccc34)cc2Cl)cc2cnc(Nc3ccc(N4CCN(C)CC4)cc3)nc21
tgt: PAK3 (Homo sapiens, UniProt O75914)
pIC50: 6.30 to 7.30
--
compound_string: CCN1CCC(c2ccc(Nc3ncc4cc(-c5ccc(-c6ccnc(C(=O)NC)c6)cc5Cl)c(=O)n(CC)c4n3)cc2)CC1
tgt: PAK3 (Homo sapiens, UniProt O75914)
pIC50: 6.30 to 7.30
--
compound_string: CC(C)Oc1ccccc1Cn1c(=O)ccc2cnc(Nc3ccc(N4CCN(C)CC4)cc3)nc21
tgt: PAK3 (Homo sapiens, UniProt O75914)
pIC50: > 6.00
--
compound_string: CCn1c(=O)c(-c2ccc(-c3ccncc3)cc2Cl)cc2cnc(Nc3ccc(N4CCN(C)CC4)cc3)nc21
tgt: PAK3 (Homo sapiens, UniProt O75914)
pIC50: > 7.30
--
compound_string: CCn1c(=O)c(-c2ccc(-c3cnc(C)s3)cc2Cl)cc2cnc(Nc3ccc(C4=CCNCC4)cc3)nc21
tgt: PAK3 (Homo sapiens, UniProt O75914)
pIC50: > 7.30
--
compound_string: CCn1c(=O)c(-c2ccc(-c3cccnc3F)cc2Cl)cc2cnc(Nc3ccc(CCN4CCOCC4)cc3)nc21
tgt: PAK3 (Homo sapiens, UniProt O75914)
pIC50: 6.30 to 7.30
--
compound_string: Cc1ncc(-c2cc(Cl)c(-c3cc4cnc(Nc5ccc(C6CCN(C)CC6)cc5)nc4n(C)c3=O)cc2F)s1
tgt: PAK3 (Homo sapiens, UniProt O75914)
pIC50: > 7.30
--
compound_string: Cc1ccc(F)cc1Cn1c(=O)ccc2cnc(Nc3ccc(N4CCN(C)CC4)cc3)nc21
tgt: PAK3 (Homo sapiens, UniProt O75914)
pIC50: 5.00 to 6.00
--
compound_string: CCn1c(=O)c(-c2sc(C)nc2C)cc2cnc(Nc3ccc(N4CCN(C)CC4)cc3)nc21
tgt: PAK3 (Homo sapiens, UniProt O75914)
pIC50: < 5.30
--
compound_string: CN1CCC(c2ccc(Nc3ncc4ccc(=O)n(Cc5c(F)cccc5C5CC5)c4n3)cc2)CC1
tgt: PAK3 (Homo sapiens, UniProt O75914)
pIC50: 6.30 to 7.30
--
compound_string: CCn1c(=O)c(-c2ccc(-c3cccnc3C)cc2Cl)cc2cnc(Nc3ccc(CCN4CCOCC4)cc3)nc21
tgt: PAK3 (Homo sapiens, UniProt O75914)
pIC50: 6.30 to 7.30
--
compound_string: CC#Cc1cc2cnc(Nc3ccc(N4CCN(C)CC4)cc3)nc2n(Cc2ccccc2C(F)(F)F)c1=O
tgt: PAK3 (Homo sapiens, UniProt O75914)
pIC50: 5.30 to 6.30
--
compound_string: CCn1c(=O)c(-c2ccc(C3CC3)s2)cc2cnc(Nc3ccc(N4CCN(C)CC4)cc3)nc21
tgt: PAK3 (Homo sapiens, UniProt O75914)
pIC50: < 5.30
--
compound_string: CCn1c(=O)c(-c2ccc(-c3ccc(C)nc3)cc2Cl)cc2cnc(Nc3ccc(C4CCN(C)CC4)c(F)c3)nc21
tgt: PAK3 (Homo sapiens, UniProt O75914)
pIC50: 6.30 to 7.30
